molecular target: T1, StrepII-tagged human ROR1 extracellular domain (human, UniProt Q01973 30-406); experiment: SPR (Biacore T200), mAb captured by anti-human Fc-gamma IgG on CM5, ROR1-strep as analyte
T1 construct: extracellular domain; also called ROR1-strep; strep-tagged human ROR1
T1 sequence (Q01973 other isoform, or with tags, fused parts or gaps): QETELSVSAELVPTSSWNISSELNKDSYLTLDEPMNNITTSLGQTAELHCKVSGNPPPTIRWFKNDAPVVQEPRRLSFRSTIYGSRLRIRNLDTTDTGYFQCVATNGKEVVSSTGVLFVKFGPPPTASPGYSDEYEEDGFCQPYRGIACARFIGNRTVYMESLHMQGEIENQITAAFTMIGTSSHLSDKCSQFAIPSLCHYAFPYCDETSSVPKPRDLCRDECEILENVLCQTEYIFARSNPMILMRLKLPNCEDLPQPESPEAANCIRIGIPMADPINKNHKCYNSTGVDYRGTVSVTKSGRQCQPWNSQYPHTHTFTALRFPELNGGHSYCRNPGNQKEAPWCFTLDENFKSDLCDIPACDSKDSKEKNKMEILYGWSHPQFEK
measurement-type: Kd

The cases that follow already have their Kd on record.
{"binder": "HuXBR1-402(17) (mAb291) (antibody, human IgG1, V domains shown, Humanized IgG (human IgG1 constant regions, lambda)) VH: QVQLRESGPGLVKPSETLSLTCTVSGFDISSYYMSWVRQPPGKGLEWIGAIGISGNAYYASWAKSRVTISRDTSKNQFSLKLSSVTAADTAVYYCARDHPTYGMDLWGPGTLVTVSS VL: SYELTQPPSVSVAPGKTARITCEGNNIGSKAVHWYQQKPGQAPVLVIYDDDERPSGIPERFSGSNSGNTATLTISRVEAGDEADYYCQVWDSSAYVFGGGTKLTVLG", "obs-value": "3.34 nM"}
{"binder": "HuXBR1-402(3) (mAb288) (antibody, human IgG1, V domains shown, Humanized IgG (human IgG1 constant regions, lambda)) VH: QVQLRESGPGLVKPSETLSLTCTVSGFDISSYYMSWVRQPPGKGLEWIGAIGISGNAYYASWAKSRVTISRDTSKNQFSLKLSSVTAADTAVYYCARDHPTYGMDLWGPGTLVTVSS VL: SYELTQPLSVSVALGQTARITCEGNNIGSKAVHWYQQKPGQAPVLVIYDDDERPSGIPERFSGSNSGNTATLTISRAQAGDEADYYCQVWDSSAYVFGGGTKLTVLG", "obs-value": "3.16 nM"}

Could you now consider this next binder?
Query: Look up and state reported Kd for HuXBR1-402(26) (mAb296) (antibody, human IgG1, V domains shown, Humanized IgG (human IgG1 constant regions, lambda)) VH: QVQLQESGPGLVKPSETLSLTCTVSGFDISSYYMSWVRQPPGNGLEWIGAIGISGNAYYASWAKSRVTISRDTSKNQFSLKLSSVTAADTAVYYCARDHPTYGMDLWGPGTLVTVSS VL: SYELTQPLSVSVALGQTARITCEGNNIGSKAVHWYQQKPGLAPVLVIYDDDERPSGIPERFSGSNSGNTATLTISRAQAGDEADYYCQVWDSSAYVFGGGTQLTVLG
Result: 3.13 nM

// provenance: patent US20220153839A1
